# tested.target: Gal(b1-3)GlcNAc(a1-6)Gal(b1-4)GlcNAc
# test.summary: glycan array binding signal (z-score within array); higher = stronger binding
# run.parameters: glycan notation: IUPAC condensed, linker removed
Shown is part of a subset that was picked to be rich in the strongest signals.
measured.property: glycan array binding signal (z-score)
One number for each entry.

Name the reported glycan array binding signal (z-score) value associated with the binder Arath Fbox (Arabidopsis thaliana), NP_178341.1 (protein) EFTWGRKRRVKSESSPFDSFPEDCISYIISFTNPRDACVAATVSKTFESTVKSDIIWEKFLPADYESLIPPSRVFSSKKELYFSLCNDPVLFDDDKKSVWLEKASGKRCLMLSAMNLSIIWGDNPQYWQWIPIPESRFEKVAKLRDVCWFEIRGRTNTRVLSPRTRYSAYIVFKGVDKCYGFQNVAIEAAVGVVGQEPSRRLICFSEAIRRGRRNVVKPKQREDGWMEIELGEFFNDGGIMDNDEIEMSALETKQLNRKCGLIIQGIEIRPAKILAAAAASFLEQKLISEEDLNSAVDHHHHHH
0.001
